Assay: in vivo
Conditions: male, Sprague Dawley, rat, po, 20 mg/kg

# cpd smiles, units symbol, Tmax
measured = [
    ("CC(C)(C)NC(=O)[C@@H]1C[C@@H]2CCCC[C@@H]2CN1C[C@@H](O)[C@H](Cc1ccccc1)NC(=O)[C@H](CC(N)=O)NC(=O)c1ccc2ccccc2n1", "h", 1.6),
]

* * *

Test: in vivo
Settings: male, Sprague Dawley, rat, Concentration of Saquinavir in plasma, 2 hr Post-Dose, Mean

# cpd smiles, concentration at 2 hr / ng/mL
data = [
    ("CC(C)(C)NC(=O)[C@@H]1C[C@@H]2CCCC[C@@H]2CN1C[C@@H](O)[C@H](Cc1ccccc1)NC(=O)[C@H](CC(N)=O)NC(=O)c1ccc2ccccc2n1", 157),
]
